# method-notes: Plasma pharmacokinetics of doxorubicin and metabolites after i.v. bolus in wild-type and mdr1a(-/-) mice (HPLC)
# study-conditions: female, FVB, mouse, plasma, iv, 5 mg/kg, Vd, volume of distribution, mdr1a(-/-) mice; i.v. bolus 5 mg kg-1
measurement-type: Vd (L/kg)
Value expressed in L/kg; do not type the unit.

Which Vd value belongs to `COc1cccc2c1C(=O)c1c(O)c3c(c(O)c1C2=O)C[C@@](O)(C(=O)CO)C[C@@H]3O[C@H]1C[C@H](N)[C@H](O)[C@H](C)O1` ?
128

###

# method-notes: Plasma pharmacokinetics of doxorubicin and metabolites after i.v. bolus in wild-type and mdr1a(-/-) mice (HPLC)
# study-conditions: female, FVB, mouse, plasma, iv, 5 mg kg-1, Plasma level, plasma; 24 h after i.v. 5 mg kg-1 doxorubicin; wild-type mice
measurement-type: concentration at 24 h (nM)
Value expressed in nM; do not type the unit.

Which concentration at 24 h value belongs to COc1cccc2c1C(=O)c1c(O)c3c(c(O)c1C2=O)C[C@@](O)(C(=O)CO)C[C@@H]3O[C@H]1C[C@H](N)[C@H](O)[C@H](C)O1 [doxorubicin] ?
16.3

###

# method-notes: Plasma pharmacokinetics of doxorubicin and metabolites after i.v. bolus in wild-type and mdr1a(-/-) mice (HPLC)
# study-conditions: female, FVB, mouse, plasma, iv, 5 mg/kg, Cl, clearance, wild-type mice; i.v. bolus 5 mg kg-1
measurement-type: clearance (L/h/kg)
Value expressed in L/h/kg; do not type the unit.

Which clearance value belongs to COc1cccc2c1C(=O)c1c(O)c3c(c(O)c1C2=O)C[C@@](O)(C(=O)CO)C[C@@H]3O[C@H]1C[C@H](N)[C@H](O)[C@H](C)O1 [doxorubicin] ?
4.5

###

# method-notes: Plasma pharmacokinetics of doxorubicin and metabolites after i.v. bolus in wild-type and mdr1a(-/-) mice (HPLC)
# study-conditions: female, FVB, mouse, plasma, iv, 5 mg kg-1, Plasma level, plasma; 1 h after i.v. 5 mg kg-1 doxorubicin; wild-type mice
measurement-type: concentration at 1 h
Note: a bare number is incomplete; add the unit.

Which concentration at 1 h value belongs to `COc1cccc2c1C(=O)c1c(O)c3c(c(O)c1C2=O)C[C@@](O)(C(=O)CO)C[C@@H]3O[C@H]1C[C@H](N)[C@H](O)[C@H](C)O1` ?
130 nM

###

# method-notes: Plasma pharmacokinetics of doxorubicin and metabolites after i.v. bolus in wild-type and mdr1a(-/-) mice (HPLC)
# study-conditions: female, FVB, mouse, in vivo, iv, 5 mg/kg, t1/2(), elimination half-life, mdr1a(-/-) mice; i.v. bolus 5 mg kg-1
measurement-type: half-life (h)
Value expressed in h; do not type the unit.

Which half-life value belongs to `COc1cccc2c1C(=O)c1c(O)c3c(c(O)c1C2=O)C[C@@](O)(C(=O)CO)C[C@@H]3O[C@H]1C[C@H](N)[C@H](O)[C@H](C)O1` ?
24.8

###

# method-notes: Plasma pharmacokinetics of doxorubicin and metabolites after i.v. bolus in wild-type and mdr1a(-/-) mice (HPLC)
# study-conditions: female, FVB, mouse, in vivo, iv, 5 mg/kg, t1/2(), elimination half-life, wild-type mice; i.v. bolus 5 mg kg-1
measurement-type: half-life (h)
Value expressed in h; do not type the unit.

Which half-life value belongs to `COc1cccc2c1C(=O)c1c(O)c3c(c(O)c1C2=O)C[C@@](O)(C(=O)CO)C[C@@H]3O[C@H]1C[C@H](N)[C@H](O)[C@H](C)O1` ?
15.7

###

# method-notes: Plasma pharmacokinetics of doxorubicin and metabolites after i.v. bolus in wild-type and mdr1a(-/-) mice (HPLC)
# study-conditions: female, FVB, mouse, plasma, iv, 5 mg kg-1, Plasma level, plasma; 1 h after i.v. 5 mg kg-1 doxorubicin; mdr1a(-/-) mice
measurement-type: concentration at 1 h (nM)
Value expressed in nM; do not type the unit.

Which concentration at 1 h value belongs to `COc1cccc2c1C(=O)c1c(O)c3c(c(O)c1C2=O)C[C@@](O)(C(=O)CO)C[C@@H]3O[C@H]1C[C@H](N)[C@H](O)[C@H](C)O1` ?
110

###

# method-notes: Plasma pharmacokinetics of doxorubicin and metabolites after i.v. bolus in wild-type and mdr1a(-/-) mice (HPLC)
# study-conditions: female, FVB, mouse, plasma, iv, 5 mg kg-1, Plasma level, plasma; 4 h after i.v. 5 mg kg-1 doxorubicin; mdr1a(-/-) mice
measurement-type: concentration at 4 h

Which concentration at 4 h value belongs to `COc1cccc2c1C(=O)c1c(O)c3c(c(O)c1C2=O)C[C@@](O)(C(=O)CO)C[C@@H]3O[C@H]1C[C@H](N)[C@H](O)[C@H](C)O1` ?
66.2 nM
